Reported growth inhibition values follow for various compounds
assay: NCI Yeast Anticancer Drug Screen. Data for the cln2 rad14 strain (AID 165);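 also: 0% = growth equal to vehicle treated cultures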; conditions: S. cerevisiae cln2 rad14 strain, at 5.0 µM (retest, dose inferred, filed as 0.5), stronger effect = higher value
About 79,000 compounds went through this panel and 15% of them were active in at least one assay; those are over-represented in the sample as a whole. The source made the active and inactive calls. Rule as the data show it: active = growth inhibition above about 70%; inactive = the rest.

| COMPOUND | growth inhibition |
| --- | --- |
| COc1cccc(C2CC(C)(O)Oc3cc4c(cc32)OCO4)c1 (stereo unspecified) | 8% (inactive) |
| O=C(N=Nc1cccc(Cl)c1)NNc1cccc(Cl)c1 | 26% (inactive) |
| CCCC(=O)Oc1ccc(OCc2ccccc2)cc1 | -3% (inactive) |
| OC1C2CCC1C1C3C=CC(C3)C21 (stereo unspecified) | -3% (inactive) |
| COc1ccc(C2c3cn[nH]c3CC3CCCCC32)cc1 (stereo unspecified) | 31% (inactive) |
| COc1cc(/C=C/C2=C(C)C(=O)CC(c3cc(OC)c(OC)c(OC)c3)C2C)cc(OC)c1OC (stereo unspecified) | -8% (inactive) |
